// provenance: patent US6001988

Molecular target: T1, L-selectin (LS-Rg) (Homo sapiens, UniProt P14151 P14151:39-332)
T1 chain: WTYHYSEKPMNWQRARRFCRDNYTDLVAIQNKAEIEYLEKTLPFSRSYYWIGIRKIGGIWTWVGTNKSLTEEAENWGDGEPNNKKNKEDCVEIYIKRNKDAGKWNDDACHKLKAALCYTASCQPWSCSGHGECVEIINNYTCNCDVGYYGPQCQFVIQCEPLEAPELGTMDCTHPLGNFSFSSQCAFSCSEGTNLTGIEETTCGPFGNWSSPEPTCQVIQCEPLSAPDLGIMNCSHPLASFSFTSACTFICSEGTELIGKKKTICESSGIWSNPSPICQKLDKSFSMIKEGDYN
Experiment: filter; room temp; 2.0 nM at 37 C
Settings: tags: human IgG2 Fc fusion (provided by A. Varki); label: 32P; hairpin
pKd: −log10 of the molar value.
reported property: pKd

binder	experimental result
182 (ssDNA) DNA: CTACCTACGATCTGACTAGCTAGTGCTCCACGTATTCAAGGTGCTAAACGAAGACGGCCTGCTTACTCTCATGTAGTTCC	9.89
